Values compiled from patent US10597388B2.

Exercise: for every item that follows, state its recorded Plant response rating, Johnsongrass.
System: johnsongrass (Sorghum halepense)
method.notes: Test C greenhouse herbicide test, pre- and postemergence
Format: in vivo
measurement.context: Preemergence, 125 g ai/ha; scale 0 to 100, 0 is no effect, 100 is complete control

molecule	system.name	metric	observed.measurement
COC(=O)Oc1c(C)nn(C)c(=O)c1-c1ccc(Br)c2ccccc12 [Compound 145]	johnsongrass (Sorghum halepense)	Plant response rating, Johnsongrass	5
CC(=O)Oc1c(C)nn(C)c(=O)c1-c1c(C)sc2ccc(C(F)(F)F)cc12 [Compound 132]	johnsongrass (Sorghum halepense)	Plant response rating, Johnsongrass	55

I need Plant response rating, Johnsongrass for every entry listed below, if you could help.
1. Cc1nn(C)c(=O)c(-c2ccc(Cl)c3ccccc23)c1O [Compound 139]
2. CCCC(=O)Oc1c(C)nn(C)c(=O)c1-c1c(CC)sc2ccc(C)cc12 [Compound 107]
3. CC(=O)Oc1c(Cl)nn(C)c(=O)c1-c1c(C)sc2ccc(Cl)cc12 [Compound 116]

1: 35; 2: 10; 3: 0

Hi there! I need Plant response rating, Johnsongrass for each item below, if you can.
1. Cc1nn(C)c(=O)c(-c2ccc(Br)c3ccccc23)c1O [Compound 75]
2. CCc1ccc2ccccc2c1-c1c(O)c(C)nn(C)c1=O [Compound 32]
3. Cn1nc(Br)c(O)c(-c2cccc3ccccc23)c1=O [Compound 20]
4. CC(=O)Oc1c(C)nn(C)c(=O)c1-c1c(C)cc(C)c2ccccc12 [Compound 99]
5. Cc1cc2ccccc2c(-c2c(O)c(C)nn(C)c2=O)c1C [Compound 34]
6. Cc1ccc2ccccc2c1-c1c(OC(=O)OC(C)C)c(C)nn(C)c1=O [Compound 72]

1. 20
2. 10
3. 0
4. 0
5. 0
6. 80

###

Tested on: bluegrass (annual bluegrass, Poa annua)
method.notes: Test D controlled growth environment herbicide test, pre- and postemergence
Assay type: in vivo
measurement.context: postemergence, 62 g ai/ha; scale 0 to 100, 0 no effect, 100 complete control
metric: Plant response rating, Bluegrass
One number for each entry.

input.smiles	Plant response rating, Bluegrass
Cc1cc(C)c2sc(C)c(-c3c(O)c(C)nn(C)c3=O)c2c1	10
Cc1nn(C)c(=O)c(-c2ccc(F)c3ccccc23)c1O	30
Cc1ccc2sc(C)c(-c3c(OC(=O)OC(C)C)c(C)nn(C)c3=O)c2c1	25
CC(=O)Oc1c(C)nn(C)c(=O)c1-c1c(C)sc2ccc(Cl)cc12	10

Below: the item to evaluate.
Returns the measured Plant response rating, Bluegrass for the input compound. Input: COC(=O)Oc1c(C)nn(C)c(=O)c1-c1c(C)sc2ccc(C)cc12 35

###

Tested on: canarygrass (Phalaris minor)
method.notes: Test D controlled growth environment herbicide test, pre- and postemergence
Type: in vivo
measurement.context: Preemergence, 62 g ai/ha; scale 0 to 100 (0 no effect, 100 complete control)
What Plant response rating, Canarygrass was measured for each of the following?
Numbers only.

// below: answered compounds
input.smiles	observed.measurement
Cc1nn(C)c(=O)c(-c2ccc(F)c3ccccc23)c1O	90
Cc1cc2ccccc2c(-c2c(O)c(C)nn(C)c2=O)c1C	50
CCc1sc2c(C)cc(C)cc2c1-c1c(O)c(C)nn(C)c1=O	10

We now examine a further compound.
Quick check: Plant response rating, Canarygrass of Cn1nc(Br)c(O)c(-c2cccc3ccccc23)c1=O ? 35
